- PROTOCOL: Plasma pharmacokinetics of ALM201 in Phase I patients (validated LC-MS/MS, Phoenix WinNonlin)
- CONDITION LABEL: human, plasma, sc, 160 mg, Cmax, Gmean (CV), 160 mg SC, day 18 cycle 2, n = 1; plasma LC-MS/MS
No end group written: not given here.
READOUT KIND: Cmax (ng/mL)
Hi! Could you send only the number? It should be in ng/mL, unit omitted.

Entry under test: IRQQPRDPPTETLELEVSPDPAS [ALM201] . Its Cmax was 1870

* * *

- PROTOCOL: Plasma pharmacokinetics of ALM201 in Phase I patients (validated LC-MS/MS, Phoenix WinNonlin)
- CONDITION LABEL: human, plasma, sc, 160 mg, Plasma concentration, geometric mean (CV%), 160 mg SC, day 18 cycle 1, 1.5 h after dosing, n = 3; LC-MS/MS
No end group written: not given here.
READOUT KIND: level at 1.5 h (ng/mL)
Express it in ng/mL; write the number only.

Summary for this sequence, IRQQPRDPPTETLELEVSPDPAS [ALM201] : level at 1.5 h is 1280

* * *

- PROTOCOL: Plasma pharmacokinetics of ALM201 in Phase I patients (validated LC-MS/MS, Phoenix WinNonlin)
- CONDITION LABEL: human, plasma, sc, 100 mg, Plasma concentration, geometric mean (CV%), 100 mg SC, day 1 cycle 1, 6 h after dosing, n = 4, NQ value substituted with 100 ng/mL; LC-MS/MS
No end group written: not given here.
READOUT KIND: level at 6 h (ng/mL)
Field: numeric (ng/mL). Do not append units.

Summary for this sequence, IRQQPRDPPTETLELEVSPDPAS [ALM201] : level at 6 h is 560

* * *

- PROTOCOL: Plasma pharmacokinetics of ALM201 in Phase I patients (validated LC-MS/MS, Phoenix WinNonlin)
- CONDITION LABEL: human, plasma, sc, 80 mg, Tmax, median, 80 mg SC, day 18 cycle 1, n = 2; plasma LC-MS/MS
No end group written: not given here.
READOUT KIND: Tmax (h)
Respond numerically; units are h and should not be typed.

Entry under test: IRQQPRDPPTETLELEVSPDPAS [ALM201] . Its Tmax was 1.23

* * *

- PROTOCOL: Plasma pharmacokinetics of ALM201 in Phase I patients (validated LC-MS/MS, Phoenix WinNonlin)
- CONDITION LABEL: human, plasma, sc, 20 mg, Plasma concentration, geometric mean (CV%), 20 mg SC, day 1 cycle 1, 3 h after dosing, n = 1; LC-MS/MS
No end group written: not given here.
READOUT KIND: level at 3 h (ng/mL)
Write it as a number; the unit ng/mL goes unstated.

# level at 3 h (sequence: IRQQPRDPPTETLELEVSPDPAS [ALM201] ) is 224

* * *

- PROTOCOL: Plasma pharmacokinetics of ALM201 in Phase I patients (validated LC-MS/MS, Phoenix WinNonlin)
- CONDITION LABEL: human, plasma, sc, 200 mg, AUC0-t, Gmean (CV), 200 mg SC, day 18 cycle 1, n = 3; plasma LC-MS/MS
No end group written: not given here.
READOUT KIND: AUC(0-t)

Consider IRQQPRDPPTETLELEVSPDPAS [ALM201] . Its measured AUC(0-t) is 5570 ng·h/mL

* * *

- PROTOCOL: Plasma pharmacokinetics of ALM201 in Phase I patients (validated LC-MS/MS, Phoenix WinNonlin)
- CONDITION LABEL: human, plasma, sc, 40 mg, Plasma concentration, geometric mean (CV%), 40 mg SC, day 18 cycle 2, 3.5 h after dosing, n = 1; LC-MS/MS
No end group written: not given here.
READOUT KIND: level at 3.5 h

response.value for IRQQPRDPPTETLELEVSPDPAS [ALM201] (field: level at 3.5 h) = 347 ng/mL

* * *

- PROTOCOL: Plasma pharmacokinetics of ALM201 in Phase I patients (validated LC-MS/MS, Phoenix WinNonlin)
- CONDITION LABEL: human, plasma, sc, 160 mg, Plasma concentration, geometric mean (CV%), 160 mg SC, day 1 cycle 1, 1.5 h after dosing, n = 3; LC-MS/MS
No end group written: not given here.
READOUT KIND: level at 1.5 h (ng/mL)
Form entry: value (ng/mL) — number only.

get_value(item= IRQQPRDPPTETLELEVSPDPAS [ALM201] , readout=level at 1.5 h) returns 1670

* * *

- PROTOCOL: Plasma pharmacokinetics of ALM201 in Phase I patients (validated LC-MS/MS, Phoenix WinNonlin)
- CONDITION LABEL: human, plasma, sc, 100 mg, Plasma concentration, geometric mean (CV%), 100 mg SC, day 1 cycle 1, 1.5 h after dosing, n = 4; LC-MS/MS
No end group written: not given here.
READOUT KIND: level at 1.5 h (ng/mL)
Express your answer in ng/mL, writing the number without its unit.

# sequence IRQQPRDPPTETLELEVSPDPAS [ALM201] ; its level at 1.5 h = 1810

* * *

- PROTOCOL: Plasma pharmacokinetics of ALM201 in Phase I patients (validated LC-MS/MS, Phoenix WinNonlin)
- CONDITION LABEL: human, plasma, sc, 300 mg, Plasma concentration, geometric mean (CV%), 300 mg SC, day 3 cycle 1, 1.5 h after dosing, n = 2 values (CV NC); LC-MS/MS
No end group written: not given here.
READOUT KIND: level at 1.5 h (ng/mL)
Write down the numeric answer in ng/mL and omit the unit.

The sequence listed as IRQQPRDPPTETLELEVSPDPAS [ALM201] has a reported level at 1.5 h of 1950

* * *

- PROTOCOL: Plasma pharmacokinetics of ALM201 in Phase I patients (validated LC-MS/MS, Phoenix WinNonlin)
- CONDITION LABEL: human, plasma, sc, 20 mg, Cmax, Gmean (CV), 20 mg SC, day 18 cycle 1, n = 1; plasma LC-MS/MS
No end group written: not given here.
READOUT KIND: Cmax (ng/mL)
Return type: number; implicit unit ng/mL.

For reference, reported Cmax for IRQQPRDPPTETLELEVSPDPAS [ALM201] stands at 319

* * *

- PROTOCOL: Plasma pharmacokinetics of ALM201 in Phase I patients (validated LC-MS/MS, Phoenix WinNonlin)
- CONDITION LABEL: human, plasma, sc, 160 mg, Plasma concentration, geometric mean (CV%), 160 mg SC, day 1 cycle 1, 0.25 h after dosing, n = 3; LC-MS/MS
No end group written: not given here.
READOUT KIND: level at 0.25 h (µg/mL)
Only the number, expressed in µg/mL, is required.

Entry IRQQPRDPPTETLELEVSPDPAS [ALM201] — recorded level at 0.25 h = 0.833

* * *

- PROTOCOL: Plasma pharmacokinetics of ALM201 in Phase I patients (validated LC-MS/MS, Phoenix WinNonlin)
- CONDITION LABEL: human, plasma, sc, 80 mg, Cmax, Gmean (CV), 80 mg SC, day 18 cycle 2, n = 1; plasma LC-MS/MS
No end group written: not given here.
READOUT KIND: Cmax (ng/mL)
Entry rule: numbers only, all in ng/mL.

Sample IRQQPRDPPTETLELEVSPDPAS [ALM201] ; Cmax observed: 849

* * *

- PROTOCOL: Plasma pharmacokinetics of ALM201 in Phase I patients (validated LC-MS/MS, Phoenix WinNonlin)
- CONDITION LABEL: human, plasma, sc, 80 mg, Plasma concentration, geometric mean (CV%), 80 mg SC, day 18 cycle 2, 1.5 h after dosing, n = 1; LC-MS/MS
No end group written: not given here.
READOUT KIND: level at 1.5 h

Briefly, level at 1.5 h measured for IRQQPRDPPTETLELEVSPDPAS [ALM201] : 659 ng/mL

* * *

- PROTOCOL: Plasma pharmacokinetics of ALM201 in Phase I patients (validated LC-MS/MS, Phoenix WinNonlin)
- CONDITION LABEL: human, plasma, sc, 10 mg, Cmax, Gmean (CV), 10 mg SC, day 3 cycle 1, n = 1; plasma LC-MS/MS
No end group written: not given here.
READOUT KIND: Cmax (ng/mL)
A number alone suffices; assume ng/mL.

Cmax measured on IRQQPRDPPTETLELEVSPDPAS [ALM201] = 406

* * *

- PROTOCOL: Plasma pharmacokinetics of ALM201 in Phase I patients (validated LC-MS/MS, Phoenix WinNonlin)
- CONDITION LABEL: human, plasma, sc, 200 mg, Plasma concentration, geometric mean (CV%), 200 mg SC, day 18 cycle 4, 3.5 h after dosing, n = 2; LC-MS/MS
No end group written: not given here.
READOUT KIND: level at 3.5 h (ng/mL)
Number in ng/mL, nothing else.

// sample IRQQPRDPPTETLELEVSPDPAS [ALM201] , its level at 3.5 h was 1310
